- Test system: CP185
- assay-name: qHTS profiling for inhibitors of Plasmodium falciparum proliferation (AID 504749); also: nearly all actives have a fitted effect of over 60% in size
- condition-summary: P. falciparum in erythrocytes, SYBR Green DNA, 72 h; series mostly up to 12.8 µM
Records with an inconclusive call do not appear. The source made the active and inactive calls. Calls follow the shape of the dose curve; as a rule, active = well fitted inhibition curve with a large enough effect; inconclusive = small, poorly fitted or top-dose-only effect; inactive = flat fitted curve, though single readings scatter.
Outcome codes: TRUE (active), FALSE (inactive)

• COc1c(O[C@H]2O[C@@H](CO)[C@@H](O)[C@@H](O)[C@@H]2O)cc2c(c1OC)-c1ccc(SC)c(=O)cc1[C@H](NC(C)=O)CC2 = FALSE
• Cc1ncc([N+](=O)[O-])n1C[C@H](O)CCl = FALSE
• CC1(C)SC2C(N3C(=O)C(c4ccccc4)NC3(C)C)C(=O)N2C1C(=O)O (stereo unspecified) = FALSE
• CO[C@@H]1C[C@H](O[C@H]2[C@@H](C)[C@H](O[C@@H]3O[C@@H](C)C[C@@H](N(C)C)[C@@H]3OC(C)=O)[C@H](C)C[C@]3(CO3)C(=O)[C@H](C)[C@H](OC(C)=O)[C@H](C)[C@H](C)OC(=O)[C@@H]2C)O[C@H](C)[C@@H]1OC(C)=O = FALSE
• NS(=O)(=O)c1cc2c(cc1Cl)N[C@@H](CC1CCCC1)NS2(=O)=O = FALSE
• Cc1ccc(S(=O)(=O)NC(=O)NN2C[C@H]3CCC[C@@H]3C2)cc1 = FALSE
• Cc1ccsc1/C=C\C1=NCCCN1C = FALSE
• CC(=O)N(C[C@@H](C)C(=O)O)c1c(I)cc(I)c(N)c1I = FALSE
• CC(C)(C)NC[C@@H](O)COc1ccccc1C1CCCC1 = TRUE
• O=C(OC[C@@H](O)CO)c1ccccc1Nc1ccnc2cc(Cl)ccc12 = FALSE
• C=Cc1c(C)/c2[n-]/c1=C\c1[n-]c(c(CC)c1C)/C=c1\[n-]c3c(c1C)C(=O)C(C(=O)[O-])C=3c1[n-]c(c(C)c1CCC(=O)[O-])\C=2.[Cu].[Na+].[Na+] (stereo unspecified) = FALSE

---

- assay-name: qHTS Assay for Lipid Storage Modulators (AID 1519)
- condition-summary: Drosophila S3 cells, BODIPY lipid droplet/cell ratio, laser cytometry; measured here: cell count channel max response; cells loaded with oleic acid
Results filed as inconclusive are left out.
measurement-type: max response (%)

- CCC1OC(=O)CC(O)C(C)[C@@H](O[C@@H]2OC(C)[C@H](O[C@@H]3C[C@@](C)(O)C(O)C(C)O3)C(N(C)C)C2O)[C@H](CC=O)CC(C)C(=O)/C=C/C(C)=C/[C@@H]1COC1OC(C)C(O)C(OC)[C@@H]1OC (stereo partly specified): -1.62
- CO[C@]12CC(COC(=O)c3cncc(Br)c3)CN(C)[C@@H]1Cc1cn(C)c3cccc2c13 (stereo partly specified): 10.9
- O=c1oc2ccccc2cc1O: 4.09
- COc1cc2cc[n+]3cc4c(OC)c(OC)ccc4cc3c2cc1OC: 22.9
- OCCOCCN1CCN([C@@H](c2ccccc2)c2ccc(Cl)cc2)CC1: 8.41
- C[C@H](C(=O)O)c1cccc(Oc2ccccc2)c1: 0.75
- COc1ccc(C[C@@](C)(N)C(=O)O)cc1OC: -10.3
- C#CCCCCCCCCCCCc1ccco1: 8.94
- COc1ccc(-c2oc3c(CC=C(C)C)c(O[C@H]4OC(CO)C(O)C(O)C4O)cc(O)c3c(=O)c2O[C@@H]2OC(C)C(O)C(O)C2O)cc1 (stereo partly specified): 22
- COC(=O)c1c(C)cc(OC)cc1O: 10
- COc1ccc2c(c1OC)C(=O)O[C@H]2C1c2c(cc3c(c2OC)OCO3)CCN1C (stereo partly specified): 20.9
- CC(=O)Oc1ccc2c(c1)CCC1C2CC[C@]2(C)C(=O)CCC12 (stereo partly specified): -13.1
- CCC(/C=C/C(C)C1CCC2C3CCC4=CC(=O)CC[C@@]4(C)C3CC[C@@]12C)C(C)C (stereo partly specified): 11.9
- COC(=O)CC1C(C)(C)C(OC(C)=O)[C@@]2(O)C=C3C4CC(=O)OC(c5ccoc5)[C@]4(C)CCC3[C@@]1(C)C2=O (stereo partly specified): 10.1
- CC(C)=CCC/C(C)=C/COc1ccc2ccc(=O)oc2c1: 27.3
- O=C(/C=C(\O)c1ccccc1)c1ccccc1O: -12.9
- CCC(C)C(=O)OC1CCC=C2C=CC(C)C(CCC3CC(O)CC(=O)O3)[C@@H]21 (stereo partly specified): 8.24
- CC(=O)NC1C(O)C[C@@](O)(C(=O)O)OC1[C@@H](O)C(O)CO (stereo partly specified): 13.3
- COc1ccc(-c2coc3cc(O)ccc3c2=O)c(O)c1O: -1.1
- CC1(C)C(=O)C2C[C@]3(O)C4=CC(=O)OC(c5ccoc5)[C@]4(C)CCC3[C@](C)(C2=O)C1CC(=O)O (stereo partly specified): 1.91
- CCOC(=O)Oc1c(OC)cc(C(=O)O[C@H]2C[C@H]3CN4CCc5c([nH]c6cc(OC)ccc56)[C@@H]4C[C@H]3[C@@H](C(=O)OC)[C@@H]2OC)cc1OC: -12.6
- O=c1c(O)c(-c2ccccc2)oc2ccccc12: -10
- CS(=O)(=O)c1ccc([C@H](O)[C@H](CO)NC(=O)C(Cl)Cl)cc1: 3.5
- OCC1O[C@@H](OC2C(O)C(CO)O[C@@]2(CO)O[C@@H]2OC(CO)C(O)C(O)C2O)C(O)C(O)C1O (stereo partly specified): 0.0409
- FC(F)(F)c1ccccc1-c1ccc2ncnc(NC3CCNCC3)c2c1: 8.99
- CCOC(=O)c1c(C)cc(O)cc1O: -2.16

---

- target-desc: Rap guanine nucleotide exchange factor 3 (Homo sapiens)
- assay-name: Confirmatory qHTS for antagonist of cAMP-regulated guanine nucleotide exchange factor 3 (EPAC1) (AID 1645880); also: nearly all actives have a fitted effect of over 55% in size
- condition-summary: EPAC1 Rap1B-BODIPY-GDP exchange, fluorescence; series mostly up to 115 µM
Results filed as inconclusive are left out. Activity calls are given as the source filed them. Calls come from the whole dose curve; as a rule, active = well fitted inhibition curve with a large enough effect; inconclusive = small, poorly fitted or top-dose-only effect; inactive = no such curve, though single readings can be large or run the other way.
Outcome codes: active, inactive

- CCCc1cc2c(cc1N(C)S(=O)(=O)c1ccccc1)OCO2: inactive
- CSCCC(NS(=O)(=O)c1ccc2c(c1)oc(=O)n2C)C(=O)NC1CCCc2ccccc21 (stereo not drawn): inactive
- COCCNC(=O)CSc1nc2cc3c(cc2c(=O)n1CCCCCC(=O)NCc1ccc(OC)cc1)OCO3: inactive
- CCOC(=O)N(C)c1c(CC)nc2c(OCc3ccc(OC(F)F)cc3)cccn12: inactive
- CN1/C(=C\C=C(/C#N)C(=O)Nc2ccccc2F)C(C)(C)c2ccccc21: inactive
- Cc1nc2ccccc2c(=O)n1/N=C/c1ccccc1O: active
- CCCOc1cccc(C2C(C(=O)c3cccs3)=C(O)C(=O)N2Cc2cccnc2)c1 (stereo not drawn): inactive
- O=C1NN(c2ccccc2)C(=O)/C1=C\c1ccc(-c2cc([N+](=O)[O-])ccc2O)o1: active

---

- System: DIV17
- assay-name: qHTS profiling for inhibitors of Plasmodium falciparum proliferation (AID 504749); also: nearly all actives have a fitted effect of over 60% in size
- condition-summary: P. falciparum in erythrocytes, SYBR Green DNA, 72 h; series mostly up to 12.8 µM
Results filed as inconclusive are left out. Activity calls are given as the source filed them. Calls follow the shape of the dose curve; as a rule, active = well fitted inhibition curve with a large enough effect; inconclusive = small, poorly fitted or top-dose-only effect; inactive = flat fitted curve, though single readings scatter.
Outcome codes: 1 for active, 0 for inactive

* CC(=O)[C@]1(O)CCC2C3C=C(Cl)C4=CC(=O)C5CC5[C@@]4(C)C3CC[C@]21C (some centres not stated) | 0
* CN[C@H]1[C@@H](O)[C@@H](NC)[C@@H]2O[C@@]3(O)C(=O)C[C@@H](C)O[C@H]3O[C@H]2[C@H]1O | 0
* NC[C@@H]1O[C@H](O[C@@H]2[C@H](O[C@@H]3O[C@H](CO)[C@@H](O)[C@@H]3O)[C@@H](O)[C@@H](N)C[C@H]2N)[C@@H](N)[C@H](O)[C@@H]1O | 0
* C[C@H](C(=O)O)c1cccc(Oc2ccccc2)c1 | 0
* C[C@@H](CNC1CCCCC1)OC(=O)c1ccccc1 | 1
* CCN[C@@H]1C[C@H](N)[C@H](O[C@H]2OC(CN)=CC[C@H]2N)[C@@H](O)[C@H]1O[C@H]1OC[C@@](C)(O)[C@@H](NC)[C@@H]1O | 0
* CCOC(=O)Oc1c(OC)cc(C(=O)O[C@H]2C[C@H]3CN4CCc5c([nH]c6cc(OC)ccc56)[C@@H]4C[C@H]3[C@@H](C(=O)OC)[C@@H]2OC)cc1OC | 1

---

- target-desc: Rap guanine nucleotide exchange factor 3 (Homo sapiens) (UniProt O95398)
- Sequence (O95398 whole entry, looked up): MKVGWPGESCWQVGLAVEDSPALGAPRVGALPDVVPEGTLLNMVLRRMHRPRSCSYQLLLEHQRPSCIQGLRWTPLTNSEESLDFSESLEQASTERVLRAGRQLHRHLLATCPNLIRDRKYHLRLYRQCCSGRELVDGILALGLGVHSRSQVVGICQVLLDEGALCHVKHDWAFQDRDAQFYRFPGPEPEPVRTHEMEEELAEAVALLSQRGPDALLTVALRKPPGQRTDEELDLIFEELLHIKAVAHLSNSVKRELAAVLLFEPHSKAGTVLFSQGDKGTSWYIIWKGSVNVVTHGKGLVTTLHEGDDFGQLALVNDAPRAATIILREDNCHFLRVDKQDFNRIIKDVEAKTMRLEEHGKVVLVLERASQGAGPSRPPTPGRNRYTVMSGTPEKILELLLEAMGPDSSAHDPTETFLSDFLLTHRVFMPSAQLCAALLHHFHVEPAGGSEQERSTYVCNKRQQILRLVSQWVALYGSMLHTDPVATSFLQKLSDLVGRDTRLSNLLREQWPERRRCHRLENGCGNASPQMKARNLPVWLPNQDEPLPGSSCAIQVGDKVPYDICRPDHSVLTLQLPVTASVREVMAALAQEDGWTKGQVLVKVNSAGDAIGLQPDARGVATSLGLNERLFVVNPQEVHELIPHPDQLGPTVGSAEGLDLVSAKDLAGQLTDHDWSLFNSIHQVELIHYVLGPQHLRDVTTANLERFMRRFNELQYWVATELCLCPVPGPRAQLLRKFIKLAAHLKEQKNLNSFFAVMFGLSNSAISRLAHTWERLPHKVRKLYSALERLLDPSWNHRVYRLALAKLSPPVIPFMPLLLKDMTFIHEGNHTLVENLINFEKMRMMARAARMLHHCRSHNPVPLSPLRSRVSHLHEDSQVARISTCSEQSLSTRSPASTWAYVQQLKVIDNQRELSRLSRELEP
- assay-name: Confirmatory qHTS for antagonist of cAMP-regulated guanine nucleotide exchange factor 3 (EPAC1) (AID 1645880); also: nearly all actives have a fitted effect of over 55% in size
- condition-summary: EPAC1 Rap1B-BODIPY-GDP exchange, fluorescence; series mostly up to 115 µM
Records with an inconclusive call do not appear. The source made the active and inactive calls. Calls come from the whole dose curve; as a rule, active = well fitted inhibition curve with a large enough effect; inconclusive = small, poorly fitted or top-dose-only effect; inactive = no such curve, though single readings can be large or run the other way.
Outcome codes: active, inactive

- CNc1ccc(Br)cc(C(=O)/C=C/c2ccc(Cl)cc2Cl)c1=O: active
- Cc1nc(N(C)Cc2ccccc2)c2c(C)c(C)sc2n1: inactive
- Cc1cccc(NC(=O)c2c(NC(=O)C(F)(F)F)sc3c2CCCCC3)c1: active
- CC(=O)Nc1nc(C)c(Oc2ccc(Cl)cc2Cl)c(=O)[nH]1: inactive
- CCCCN(Cc1ccc(C(=O)N[C@H](C(=O)O)C(C)C)cc1)C(=O)C(c1ccccc1)c1ccccc1: inactive
- Cn1cccc1-c1cc(C(=O)N/N=C/c2ccc(F)cc2)[nH]n1: inactive
- Cc1ccccc1CNC(=O)CCC(=O)N1CCSc2ccccc21: inactive
- O=C(C[n+]1cc(Br)cc2ccccc21)c1ccc(F)cc1: inactive
- CCc1ccccc1NC(=O)c1cc2sc(Cl)cc2n1CC: inactive
- NS(=O)(=O)c1ccc(Nc2nc3ccccc3nc2NS(=O)(=O)c2cccc([N+](=O)[O-])c2)cc1: active
- O=c1cc(-c2ccccc2)nc2c(-c3ccccc3)c(C(F)(F)F)[nH]n12: active
- Cc1[nH]c(C)c2c(=O)n(Cc3ccc(Cl)cc3)ncc12: inactive
- O=C(/C=C/c1ccccc1)c1cc(Br)ccc(=O)c1O: active
- COc1ccccc1/C=C/C=C1\Oc2c(ccc(O)c2CN(C)C)C1=O: inactive
- N#Cc1c(-c2ccccc2)nc(SCC(=O)N2c3ccccc3Sc3ccccc32)[nH]c1=O: active
- COC(=O)C1(Cc2ccccc2)NC(c2ccc(F)cc2)C2C(=O)N(C)C(=O)C21 (centres undefined): inactive
- COC(=O)c1cc(Br)c(=O)n(CCC2=CCCCC2)c1: inactive
- CCCCOc1ccccc1Cn1c(=O)oc2ccc(C)cc21: inactive
- O=C1C(=Cc2cn(-c3ccccc3)nc2-c2ccc(OCc3ccccc3)cc2)SC(=S)N1CCS(=O)(=O)O: active
